Target: benzodiazepine site of the GABA-A receptor
Test: Benzodiazepine Receptor Binding Assay (inhibition of 3H-flunitrazepam binding)
Details: 3H-flunitrazepam ca. 3 nM
testReadout: pIC50
Scale note: pIC50 = -log10(concentration in M).

Recorded results for 10 compounds are shown here.
[[record]]
compound = "O=C1CCN2C(=C1C(=O)Nc1ccccc1F)Nc1cc3ccccc3cc12 [Example 1]"
resultnumber = 7.77

[[record]]
compound = "CN(CCN1C2=C(C(=O)Nc3ccccc3F)C(=O)CCN2c2cc3ccccc3cc21)Cc1ccccc1 [Example 6]"
resultnumber = 8.10

[[record]]
compound = "CCN1C2=C(C(=O)Nc3c(F)cccc3F)C(=O)CCN2c2cc3ccccc3cc21 [Example 4]"
resultnumber = 8.16

[[record]]
compound = "O=C1CCN2C(=C1C(=O)Nc1nccs1)Nc1cc3ccccc3cc12 [Example 17]"
resultnumber = 6.44

[[record]]
compound = "CCN1C2=C(C(=O)Nc3ccccc3F)C(=O)CCN2c2cc3ccccc3cc21 [Example 3]"
resultnumber = 9.03

[[record]]
compound = "CCN1C2=C(C(=O)Nc3cccs3)C(=O)CCN2c2cc3ccccc3cc21 [Example 16]"
resultnumber = 9.15

[[record]]
compound = "COCCN1C2=C(C(=O)Nc3ccccc3F)C(=O)CCN2c2cc3ccccc3cc21 [Example 5]"
resultnumber = 9.43

[[record]]
compound = "CNCCN1C2=C(C(=O)Nc3c(F)cccc3F)C(=O)CCN2c2cc3ccccc3cc21.Cl [Example 9, hydrochloride]"
resultnumber = 7.12

[[record]]
compound = "CNCCN1C2=C(C(=O)Nc3ccccc3F)C(=O)CCN2c2cc3ccccc3cc21.Cl [Example 8, hydrochloride]"
resultnumber = 8.10

[[record]]
compound = "O=C1CCN2C(=C1C(=O)Nc1c(F)cccc1F)Nc1c2ccc2ccccc12 [Example 20]"
resultnumber = 8.56


Exam item: Query pIC50 for COCCN1C2=C(C(=O)Nc3ccccc3F)C(=O)CCN2c2c1ccc1ccccc21 [Example 12]
Marked response: 7.24

Exam item: Query pIC50 for COCCN1C2=C(C(=O)Nc3nccs3)C(=O)CCN2c2cc3ccccc3cc21 [Example 19]
Marked response: 8.47

Exam item: Query pIC50 for CCOCN1C2=C(C(=O)Nc3c(F)cccc3F)C(=O)CCN2c2ccc3ccccc3c21 [Example 26]
Marked response: 7.99

----------
minimal effective dose values, listed per item
System: behavior suppressed by punishment (rat conflict)
Assay: Suppression of Anxiety in the Adult Male Rat (rat conflict, Vogel)
Assay type: in vivo
Conditions: po, minimum effective dose, Wilcoxon rank-sum test p<0.05, read-out: rat conflict MED
Description: Assay to Measure the Suppression of Anxiety in the Adult Male Rat Male rats were deprived of water for 48 hours and were deprived of food for 24 hours prior to testing. […] The biological assay is considered to be valid if the effects of a known anxiolytic (positive control) are detected, within the same experiment.

Recorded results for 6 compounds are shown here.
[[record]]
compound = "CCN1C2=C(C(=O)Nc3cccs3)C(=O)CCN2c2cc3ccccc3cc21 [Example 16]"
testreadout = "minimal effective dose"
result = "> 10 mg/kg"

[[record]]
compound = "CCN1C2=C(C(=O)Nc3c(F)cccc3F)C(=O)CCN2c2cc3ccccc3cc21 [Example 4]"
testreadout = "minimal effective dose"
result = "> 10 mg/kg"

[[record]]
compound = "CCN1C2=C(C(=O)Nc3ccccc3F)C(=O)CCN2c2cc3ccccc3cc21 [Example 3]"
testreadout = "minimal effective dose"
result = "10 mg/kg"

[[record]]
compound = "CCOCN1C2=C(C(=O)Nc3c(F)cccc3F)C(=O)CCN2c2cc3ccccc3cc21 [Example 10]"
testreadout = "minimal effective dose"
result = "> 10 mg/kg"

[[record]]
compound = "CNCCN1C2=C(C(=O)Nc3c(F)cccc3F)C(=O)CCN2c2cc3ccccc3cc21.Cl [Example 9]"
testreadout = "minimal effective dose"
result = "> 10 mg/kg"

[[record]]
compound = "CCN1C2=C(C(=O)Nc3ccccc3F)C(=O)CCN2c2ccc3ccccc3c21 [Example 21]"
testreadout = "minimal effective dose"
result = "> 10 mg/kg"


Exam item: Report minimal effective dose on behavior suppressed by punishment (rat conflict) for this entry: CCOCCN1C2=C(C(=O)Nc3c(F)cccc3F)C(=O)CCN2c2ccc3ccccc3c21 [Example 25]
Marked response: > 3 mg/kg

Exam item: Report minimal effective dose on behavior suppressed by punishment (rat conflict) for this entry: O=C1CCN2C(=C1C(=O)Nc1c(F)cccc1F)Nc1c2ccc2ccccc12 [Example 20]
Marked response: > 10 mg/kg

Values from patent US6200984A
